assay: Preclinical PK study: plasma and muscle concentrations of trehalose after IV bolus and oral gavage; assay type: in vivo, male Sprague-Dawley (SD) rats; conditions: male, Sprague-Dawley, rat, in vivo, po, 1000 mg/kg
RESULT TYPE: Cmax (ng/mL)
Field format: number, assumed ng/mL, no unit text.

# input For the compound "OC[C@H]1O[C@H](O[C@H]2O[C@H](CO)[C@@H](O)[C@H](O)[C@H]2O)[C@H](O)[C@@H](O)[C@@H]1O" , what Cmax is on record?
# output 4280

---

test: Preclinical PK study: plasma and muscle concentrations of trehalose after IV bolus and oral gavage; assay type: in vivo, male Sprague-Dawley (SD) rats; settings: male, Sprague-Dawley, rat, in vivo, iv, 1000 mg/kg
RESULT TYPE: Vd (L/kg)
Give the quantity in L/kg, number only.

# input Please give the measured Vd for this molecule: "OC[C@H]1O[C@H](O[C@H]2O[C@H](CO)[C@@H](O)[C@H](O)[C@H]2O)[C@H](O)[C@@H](O)[C@@H]1O"
# output 0.685
